System: L. amazoniensis promastigotes
experiment: Leishmanicidal activity against L. amazoniensis promastigotes (XTT)
details: Leishmania amazonensis, 72 h, read-out: L. amazoniensis IC50
pIC50: −log10 of the molar value.
measurement.type: pIC50

[[record]]
chem_smiles = "CCCC(=O)OCc1ccc2c(c1)-c1cc(OC)ccc1OC2(C)C"
endpoint_value = 4.10

[[record]]
chem_smiles = "COc1ccc2c(c1)-c1cc(C(C)=O)ccc1C(C)(C)O2"
endpoint_value = 4.36

[[record]]
chem_smiles = "COCc1ccc2c(c1)-c1cc(OC)ccc1OC2(C)C"
endpoint_value = 4.25

[[record]]
chem_smiles = "COc1ccc2c(c1)-c1cc(COC(C)C)ccc1C(C)(C)O2"
endpoint_value = 4.45

[[record]]
chem_smiles = "COc1ccc2c(c1)-c1cc(CNC(C)C)ccc1C(C)(C)O2"
endpoint_value = 4.17

[[record]]
chem_smiles = "COc1ccc2c(c1)-c1cc(CO)ccc1C(C)(C)O2"
endpoint_value = 4.11

[[record]]
chem_smiles = "COc1ccc2c(c1)-c1cc(C(N)=O)ccc1C(C)(C)O2"
endpoint_value = 3.92

[[record]]
chem_smiles = "COc1ccc2c(c1)-c1cc(COC(=O)C(C)C)ccc1C(C)(C)O2"
endpoint_value = 4.57

[[record]]
chem_smiles = "COc1ccc2c(c1)-c1cc(COC(=O)CC(C)C)ccc1C(C)(C)O2"
endpoint_value = 4.84

[[record]]
chem_smiles = "COc1ccc2c(c1)-c1cc(C(=O)O)ccc1C(C)(C)O2"
endpoint_value = 3.70

[[record]]
chem_smiles = "COc1ccc2c(c1)-c1cc(C)ccc1C(C)(C)O2"
endpoint_value = 4.07

[[record]]
chem_smiles = "C=CC(=O)OCc1ccc2c(c1)-c1cc(OC)ccc1OC2(C)C"
endpoint_value = 5.16

[[record]]
chem_smiles = "COc1ccc2c(c1)-c1cc(CNCC(C)C)ccc1C(C)(C)O2"
endpoint_value = 4.81

[[record]]
chem_smiles = "COc1ccc2c(c1)-c1cc(COC(=O)c3ccccc3)ccc1C(C)(C)O2"
endpoint_value = 4.66

[[record]]
chem_smiles = "COc1ccc2c(c1)-c1cc(COC(=O)C3CCCCC3)ccc1C(C)(C)O2"
endpoint_value = 4.39

[[record]]
chem_smiles = "COc1ccc2c(c1)-c1cc(COC(=O)c3ccco3)ccc1C(C)(C)O2"
endpoint_value = 4.89

[[record]]
chem_smiles = "COc1ccc2c(c1)-c1cc(CCl)ccc1C(C)(C)O2"
endpoint_value = 4.46

[[record]]
chem_smiles = "COc1ccc2c(c1)-c1cc(COC(=O)CC(C)(C)C)ccc1C(C)(C)O2"
endpoint_value = 4.71

[[record]]
chem_smiles = "COc1ccc2c(c1)-c1cc(COC(=O)CCC3CCCC3)ccc1C(C)(C)O2"
endpoint_value = 4.51

[[record]]
chem_smiles = "COc1ccc2c(c1)-c1cc(C=O)ccc1C(C)(C)O2"
endpoint_value = 4.53

[[record]]
chem_smiles = "COc1ccc2c(c1)-c1cc(C(=N)NO)ccc1C(C)(C)O2"
endpoint_value = 4.28

